# protocol summary: Clearance in C57BL/6 mouse at 5 mg/kg, iv measured upto 8 hrs by LC-MS/MS analysis
# Format: ADME, organism-based
# measurement setup: in vivo
observable: clearance (mL/min/kg)

>>> val("CN1Cc2nn(C)c(C#N)c2-c2cnc3[nH]cc(c3c2)-c2cn(nc2C(F)(F)F)CCCC1=O")
167

###

# test target: UniProt P51812
# protocol summary: Inhibition of RSK2 (unknown origin) in human CAL-27 cells measured after 6 hrs by select screen kinase assay
# Format: cell-based
observable: IC50

>>> val("CN1Cc2nn(C)c(C#N)c2-c2cnc3[nH]c(F)c(c3c2)-c2cn(nc2C(F)(F)F)CCCC1=O")
"80 nM"

###

# test target: Focal adhesion kinase 1 (Homo sapiens, UniProt Q05397)
# Sequence (Q05397 whole entry): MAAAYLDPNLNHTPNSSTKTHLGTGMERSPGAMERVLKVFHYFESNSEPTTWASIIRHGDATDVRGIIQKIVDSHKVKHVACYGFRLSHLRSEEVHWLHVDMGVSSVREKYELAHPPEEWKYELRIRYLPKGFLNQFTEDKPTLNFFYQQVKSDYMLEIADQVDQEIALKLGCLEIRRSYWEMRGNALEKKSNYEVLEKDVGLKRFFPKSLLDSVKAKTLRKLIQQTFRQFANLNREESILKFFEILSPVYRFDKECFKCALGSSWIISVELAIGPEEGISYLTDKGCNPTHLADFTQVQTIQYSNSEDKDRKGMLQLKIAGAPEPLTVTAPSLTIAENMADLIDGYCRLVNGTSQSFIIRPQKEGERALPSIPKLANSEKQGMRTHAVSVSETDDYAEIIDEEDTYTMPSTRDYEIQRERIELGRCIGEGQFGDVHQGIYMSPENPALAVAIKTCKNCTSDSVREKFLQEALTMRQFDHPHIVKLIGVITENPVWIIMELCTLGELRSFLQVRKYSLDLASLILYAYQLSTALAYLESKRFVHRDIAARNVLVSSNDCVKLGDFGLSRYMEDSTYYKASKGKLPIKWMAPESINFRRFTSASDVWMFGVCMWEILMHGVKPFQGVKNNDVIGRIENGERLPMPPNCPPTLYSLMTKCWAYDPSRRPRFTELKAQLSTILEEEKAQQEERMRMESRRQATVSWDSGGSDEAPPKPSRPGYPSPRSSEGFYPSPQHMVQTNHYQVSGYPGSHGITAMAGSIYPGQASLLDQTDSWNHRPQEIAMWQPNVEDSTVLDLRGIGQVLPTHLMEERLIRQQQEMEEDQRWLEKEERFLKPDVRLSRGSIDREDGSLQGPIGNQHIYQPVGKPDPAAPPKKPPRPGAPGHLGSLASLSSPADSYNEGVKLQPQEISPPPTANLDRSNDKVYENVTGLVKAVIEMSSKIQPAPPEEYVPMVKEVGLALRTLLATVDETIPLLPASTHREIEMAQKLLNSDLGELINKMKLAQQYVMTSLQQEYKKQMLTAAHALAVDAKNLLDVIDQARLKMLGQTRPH
# protocol summary: Inhibition of FAK (unknown origin) in human CAL-27 cells measured after 6 hrs by select screen kinase assay
# Format: cell-based
pIC50: −log10 of the molar value.
observable: pIC50

>>> val("CN1Cc2nn(C)c(C#N)c2-c2cnc3[nH]c(F)c(c3c2)-c2cn(nc2C(F)(F)F)CCCC1=O")
7.05

###

# test target: Ribosomal protein S6 kinase alpha-3 (Homo sapiens, UniProt P51812)
# Sequence (P51812 whole entry): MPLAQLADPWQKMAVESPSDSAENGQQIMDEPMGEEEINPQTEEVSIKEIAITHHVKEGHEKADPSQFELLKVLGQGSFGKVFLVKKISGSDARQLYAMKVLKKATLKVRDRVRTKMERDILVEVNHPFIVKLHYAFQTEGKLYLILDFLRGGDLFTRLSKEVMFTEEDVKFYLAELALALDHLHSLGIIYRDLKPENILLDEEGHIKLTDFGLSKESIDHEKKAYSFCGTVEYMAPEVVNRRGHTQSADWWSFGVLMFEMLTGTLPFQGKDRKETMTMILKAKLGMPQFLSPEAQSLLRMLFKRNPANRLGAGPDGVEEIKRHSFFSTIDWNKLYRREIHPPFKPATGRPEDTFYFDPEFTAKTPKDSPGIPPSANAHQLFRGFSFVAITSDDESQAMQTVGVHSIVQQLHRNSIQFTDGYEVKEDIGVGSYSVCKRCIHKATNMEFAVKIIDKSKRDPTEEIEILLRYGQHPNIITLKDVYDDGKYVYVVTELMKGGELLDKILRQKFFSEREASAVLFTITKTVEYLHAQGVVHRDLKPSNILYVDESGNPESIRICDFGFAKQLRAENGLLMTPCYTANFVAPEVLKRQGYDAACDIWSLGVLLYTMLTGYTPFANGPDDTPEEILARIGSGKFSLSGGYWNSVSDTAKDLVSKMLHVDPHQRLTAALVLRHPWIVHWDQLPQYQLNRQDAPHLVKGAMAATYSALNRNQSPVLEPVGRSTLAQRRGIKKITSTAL
# protocol summary: Inhibition of RSK2 (unknown origin) at 1 uM by kinome scan method
pIC50: −log10 of the molar value.
observable: pIC50

>>> val("CN1Cc2nn(C)c(C#N)c2-c2cnc3[nH]c(F)c(c3c2)-c2cn(nc2C(F)(F)F)CCCC1=O")
6.74

###

Measured Activity of individual entries
# Test system: CAL-27
# protocol summary: Induction of apoptosis in human CAL-27 cells assessed as BCL-xL level at 10 uM after 24 hrs by Immunoblot analysis relative to control
# Format: functional
observable: Activity (%)

>>> val("COc1c2c(nn1C)CN(C(C)C)C(=O)CCCn1cc(c(C(F)(F)F)n1)-c1c[nH]c3ncc-2cc13")
84
>>> val("COc1c2c(nn1C)CN(C(C)C)C(=O)CCCn1cc(c(C(F)(F)F)n1)-c1c(C)[nH]c3ncc-2cc13")
61
>>> val("Cc1[nH]c2ncc3cc2c1-c1cn(nc1C(F)(F)F)CCCC(=O)N(C)Cc1nn(C)c(C#N)c1-3")
105
>>> val("CN1Cc2nn(C)c(C#N)c2-c2cnc3[nH]c(F)c(c3c2)-c2cn(nc2C(F)(F)F)CCCC1=O")
58
>>> val("O=C(O)c1ccc2c(c1)nc(Nc1cccc(Cl)c1)c1ccncc12 [SILMITASERTIB]")
103
>>> val("COc1ccc2c(c1)[nH]c1c(C)nccc12 [HARMINE]")
93

###

# protocol summary: Half life in C57BL/6 mouse at 10 mg/kg, po measured upto 8 hrs by LC-MS/MS analysis
# Assay type: ADME, organism-based
# measurement setup: in vivo
Measured half-life of individual entries
observable: half-life (h)

>>> val("CN1Cc2nn(C)c(C#N)c2-c2cnc3[nH]c(F)c(c3c2)-c2cn(nc2C(F)(F)F)CCCC1=O")
2.4
>>> val("CN1Cc2nn(C)c(C#N)c2-c2cnc3[nH]cc(c3c2)-c2cn(nc2C(F)(F)F)CCCC1=O")
2

###

# protocol summary: Oral bioavailability in C57BL/6 mouse at 10 mg/kg measured upto 8 hrs by LC-MS/MS analysis
# Type: ADME, organism-based
# measurement setup: C57BL/6, mouse, in vivo
observable: bioavailability (%)

>>> val("CN1Cc2nn(C)c(C#N)c2-c2cnc3[nH]c(F)c(c3c2)-c2cn(nc2C(F)(F)F)CCCC1=O")
12.3
